- test-target: UniProtKB Q15119
- experimental-protocol: Inhibitory action of PDHK2 activity (PDH/hPDHK2 complex, residual PDH activity by NADH absorbance at 340 nm)
- study-conditions: FLAG-tagged recombinant hPDHK2 with porcine heart PDH complex; PDHK reaction 45 min at room temperature
pIC50: −log10 of the molar value.
attribute-measured: pIC50

Check out these entries, answers already filled in.
Exercise: Kindly state the measured pIC50 obtained for C[C@H]1Cn2nc(OCCC(C)(C)O)cc2-c2onc([C@@](C)(O)C(F)(F)F)c21 (racemic) [Example 34] with UniProtKB Q15119.
Key: 7.83

Exercise: Tell me reported pIC50 for C[C@H]1Cn2nc(OCF)cc2-c2onc([C@@](C)(O)C(F)(F)F)c21 [Example 64] , tested with UniProtKB Q15119.
Key: 8.12

Exercise: Any idea what pIC50 came out for C[C@H]1Cn2nc(N3CC4(C3)CC(F)(F)C4)cc2-c2cnc([C@@](C)(O)C(F)(F)F)n21 on UniProtKB Q15119?
Key: 7.44

Exercise: Report pIC50 for C[C@H]1Cc2nn([C@H]3CC[C@](C)(O)CC3)cc2-c2onc([C@@](C)(O)C(F)(F)F)c21 [Example 105] tested on UniProtKB Q15119.
Key: 8.00

Exercise: Please tell me: pIC50 of C[C@H]1Cn2nc(OCC3COC3)cc2-c2onc([C@@](C)(O)C(F)(F)F)c21 (racemic) , system UniProtKB Q15119?
Key: 7.80

Exercise: Report pIC50 for C[C@H]1Cn2nc(C34CCC(CO)(CC3)C4)cc2-c2cnc([C@@](C)(O)C(F)(F)F)n21 tested on UniProtKB Q15119.
Key: 7.96

Exercise: Look up pIC50 with UniProtKB Q15119 for this compound: C[C@H]1Cn2nccc2-c2onc([C@@](C)(O)C(F)(F)F)c21 (racemic) [Example 17]
Key: 7.67

Exercise: Tell me reported pIC50 for C[C@H]1Cc2c(cnn2C23CC(C#N)(C2)C3)-c2onc([C@@](C)(O)C(F)(F)F)c21 (racemic) , tested with UniProtKB Q15119.
Key: 7.86

I = C[C@H]1Cn2c(nnc2C2CC2)-c2onc([C@@](C)(O)C(F)(F)F)c21
II = C[C@H]1Cn2nc(C34CCC(CO)(C3)C4)cc2-c2cnc([C@@](C)(O)C(F)(F)F)n21
Exercise: Hi, I'm comparing two records. Which one has the lower pIC50, I or II ? Response format: the label of the selected entry.
Key: II
(II: 7.50, I: 7.97)

----------
- test-target: human PDHK2 (hPDHK2) (Homo sapiens (Human), UniProt Q15119)
- experimental-protocol: Inhibitory action of PDHK2 activity (PDH/hPDHK2 complex, residual PDH activity by NADH absorbance at 340 nm)
- study-conditions: FLAG-tagged recombinant hPDHK2 with porcine heart PDH complex; PDHK reaction 45 min at room temperature
attribute-measured: IC50 (nM)

# annotated cases, reported IC50 shown
Exercise: Request: IC50, test system human PDHK2 (hPDHK2) (Homo sapiens (Human), UniProt Q15119), entry C[C@H]1Cn2nc(O[C@H]3C[C@](C)(C#N)C3)cc2-c2onc([C@@](C)(O)C(F)(F)F)c21 (racemic) [Example 47]
Key: 25.8

Exercise: I'm curious: which IC50 was measured for C[C@H]1Cn2nc(OC3CCOCC3)cc2-c2onc([C@@](C)(O)C(F)(F)F)c21 [Example 59] tested on human PDHK2 (hPDHK2) (Homo sapiens (Human), UniProt Q15119)?
Key: 7.1

Exercise: Missing value: IC50, human PDHK2 (hPDHK2) (Homo sapiens (Human), UniProt Q15119), entry C[C@H]1Cn2c(nnc2C(F)(F)F)-c2onc([C@@](C)(O)C(F)(F)F)c21 . Fill in?
Key: 24.3

I = C[C@H]1Cn2c(nnc2C23CCC(C(C)(C)O)(CC2)CC3)-c2onc([C@@](C)(O)C(F)(F)F)c21
II = C[C@H]1Cc2nn(C3CC(C#N)C3)cc2-c2onc([C@@](C)(O)C(F)(F)F)c21 (stereo in doubt) [Example 27]
III = C[C@H]1Cn2nc(C34CCC(CO)(CC3)CC4)cc2-c2cnc([C@@](C)(O)C(F)(F)F)n21
IV = C[C@H]1Cc2nn(CCC(C)(C)O)cc2-c2onc([C@@](C)(O)C(F)(F)F)c21
Exercise: Arrange these molecules by their IC50, starting with the largest number. In plain terms: list the labels in the order you were asked to.
Key: II, III, IV, I
(II: 31.5 nM, III: 18 nM, IV: 9.1 nM, I: 6 nM)
